quantityName: pIC50
Friendly reminder that pIC50 comes from taking -log10 of the concentration in mol/L.

For the compound "C[C@H]1c2cccc(O)c2C(=O)C2=C(O)[C@]3(O)C(=O)C(C(=O)NCN(CCO[N+](=O)[O-])CCO[N+](=O)[O-])=C(O)[C@@H](N(C)C)[C@@H]3[C@@H](O)[C@@H]21" , the measured pIC50 on MMP-9 (Homo sapiens) was 4.60

###

protocol: Plasma doxycycline and nitrite/nitrate (NOx) in non-human primates
Type: in vivo, cynomolgus monkeys
conditionSet: cynomolgus monkey, po, 4.8 mg/kg doxycycline hyclate, day 3 of dosing, base equivalents, read-out: Maximum plasma doxycycline concentration (Cmax)
quantityName: Cmax (µM)
Number in µM, nothing else.

Note to self: Cmax recorded for C[C@H]1c2cccc(O)c2C(=O)C2=C(O)[C@]3(O)C(=O)C(C(N)=O)=C(O)[C@@H](N(C)C)[C@@H]3[C@@H](O)[C@@H]21 [Doxycycline, reference compound] was 5.1
